assay: basal HepG2 mitochondrial membrane potential changes, profiling panel, cell-based, JC-1 fluorescence, 24 h, 100 nL compound (AID 1167); details: higher = more signal; also: test concentration not given here
measured-attribute: z-score

[
  {
    "compound": "COc1ccc([Si](C)(C)[C@H]2[C@H](CC(=O)N3CCC[C@H]3CO)O[C@@]3(C(=O)N(Cc4cccc(N5CCCCC5=O)c4)c4ccccc43)[C@@H]2C)cc1",
    "reported-value": 2.8
  },
  {
    "compound": "COc1ccc(CCNC(=O)[C@@]2(C)c3ccccc3C(=O)N(Cc3ccc(OC(F)(F)F)cc3)[C@H]2c2ccc(CO)cc2)cc1",
    "reported-value": 2.56
  },
  {
    "compound": "CN(C)CCCCCCNC(=O)[C@@H]1C[C@@H]2C(=O)N[C@@H](CCCC[N+](C)(C)C)C(=O)N2[C@@H]1c1cccc(OCCO)c1",
    "reported-value": 1.37
  },
  {
    "compound": "C[C@@]1([C@@H](NS(=O)(=O)c2cccc3cccnc23)c2ccc(-c3ccccc3)cc2)C[C@H]1C1CCCCC1",
    "reported-value": -1.46
  },
  {
    "compound": "C=CCOC(=O)[C@H]1[C@@H]2C(=O)O[C@@H](c3ccccc3)[C@@H](c3ccccc3)N2[C@@H](c2ccc(OCCOC(=O)[C@H]3C[C@H]4C(=O)NCC(=O)N4[C@H]3c3ccc(O)cc3)cc2)[C@]12C(=O)Nc1ccccc12",
    "reported-value": -1.42
  },
  {
    "compound": "CC(C)C[C@H]1NC(=O)CNC(=O)[C@@]23C(=O)N[C@@H](Cc4ccccc4)C2[C@H](C)[C@@]2(C)O[C@H]2C3/C=C/C/C=C\\CNC1=O (some centres not stated)",
    "reported-value": -0.561
  },
  {
    "compound": "COC(=O)[C@H]1N=C(c2ccc(OCCCO)cc2)O[C@H]1c1ccccc1N=[N+]=[N-]",
    "reported-value": -0.434
  }
]

====

experiment: small-molecule microarray binders of probe aDKK1, primary screen, biochemical, biotinylated probe, 635/667 nm fluorescence (AID 1099); settings: higher = more signal;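 also: score merges 667nm spot fluorescence with signal to noise across triplicate slides; reference of the scale not given here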

[
  {
    "molecule": "COc1c(C)cc(-c2nc(-c3ccccc3)c3c(c2C)CO[Si]3(C(C)C)C(C)C)cc1C",
    "composite z-score": -0.141
  },
  {
    "molecule": "CN1C(=O)C2C=CC(C(O)COCc3ccccc3)N(Nc3ccc([N+](=O)[O-])cc3[N+](=O)[O-])C2C1=O (configuration not stated)",
    "composite z-score": 0.753
  },
  {
    "molecule": "C=C1C(=O)C=C2CN(C(=O)c3ccccc3)[C@@](Cc3ccc(F)cc3)(C(=O)OC)[C@@H]12",
    "composite z-score": 1.16
  },
  {
    "molecule": "O=C1C2C=CC(C(O)C3CCCCC3)N(Nc3ccccc3F)C2C(=O)N1c1ccccc1 (configuration not stated)",
    "composite z-score": 1.15
  },
  {
    "molecule": "C=CCNC(=O)[C@H]1[C@@H]2C(=O)O[C@@H](c3ccccc3)[C@@H](c3ccccc3)N2[C@@H](c2ccc(OCCO)cc2)[C@]12C(=O)N(C(=O)OCCOC)c1ccc(C#CCNC(N)=O)cc12",
    "composite z-score": 0.02
  },
  {
    "molecule": "CC(C)c1ccc(NN2C(C(O)C3CCCCC3)C=CC3C(=O)N(c4ccccc4)C(=O)C32)cc1 (configuration not stated)",
    "composite z-score": 0.929
  },
  {
    "molecule": "COCCOC(=O)N1C(=O)[C@@]2(c3cc(C#CCC(C(=O)OC)C(=O)OC)ccc31)[C@H](C(N)=O)[C@H]1C(=O)O[C@H](c3ccccc3)[C@H](c3ccccc3)N1[C@@H]2c1ccccc1OCCO",
    "composite z-score": -0.202
  }
]

====

system: Inhibin beta A chain (activin A); test: INHBA (activin A) binders on microarrays, primary screen, biochemical, small-molecule microarray, 635 nm fluorescence scan (AID 1107); conditions: small-molecule microarray binding, higher = more signal;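 also: mouse activin A protein probed at 4.33 µg/mL on printed slides; score merges bound-protein fluorescence near 667 nm with spot signal-to-noise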
As shown below, each of these molecules has a reported composite z-score value.

[
  {
    "molecule": "CC(C)c1ccc(NN2C(C(O)c3ccccc3)C=CC3C(=O)N(c4ccccc4)C(=O)C32)cc1 (centres undefined)",
    "assay-target": "Inhibin beta A chain (activin A)",
    "composite z-score": 0.546
  },
  {
    "molecule": "COc1ccc(CCNC(=O)[C@@]2(C)c3ccccc3C(=O)N(Cc3ccc(OC(F)(F)F)cc3)[C@H]2c2ccc(CO)cc2)cc1",
    "assay-target": "Inhibin beta A chain (activin A)",
    "composite z-score": -0.307
  },
  {
    "molecule": "CN1C(=O)C2CC=C(C3=CCO[C@@H]3[C@H]3CCCN3S(=O)(=O)c3ccccc3[N+](=O)[O-])CC2C1=O (some centres undefined)",
    "assay-target": "Inhibin beta A chain (activin A)",
    "composite z-score": 0.666
  },
  {
    "molecule": "COC(=O)[C@]1(Cc2ccccc2N=[N+]=[N-])N=C(c2ccc(OCCCO)cc2)O[C@@H]1c1ccccc1CN=[N+]=[N-]",
    "assay-target": "Inhibin beta A chain (activin A)",
    "composite z-score": 1.1
  }
]

====

assay: compound binding in COS7 lysate, probe aLAP1, primary screen, cell lysate, small-molecule microarray (AID 1124); settings: probe aLAP1, fluorescence, higher = more signal;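 also: lysate comes from COS7 cells expressing LAP1 and is applied at 0.3 µg/mL; score merges spot fluorescence near 667 nm with signal-to-noise over triplicate slides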
As shown below, each of these compounds has a reported composite z-score value.

[
  {
    "compound": "C=C(COC)C(=O)CC[C@H](OC(C)=O)c1ccc(CO)o1",
    "composite z-score": -0.218
  },
  {
    "compound": "CCCCN1CC=CC23O[C@@H]4/C=C\\CCC(C)OC(=O)C4[C@H]2C(=O)N(CCO)[C@@H]3C1=O (some centres undefined)",
    "composite z-score": 1.49
  },
  {
    "compound": "COc1ccc([Si](C)(C)[C@H]2[C@H](CC(=O)N3CCC[C@H]3CO)O[C@@]3(C(=O)N(C)c4c(Br)cc(C)cc43)[C@@H]2C)cc1",
    "composite z-score": 0.548
  },
  {
    "compound": "COC(=O)[C@@]1(Cc2ccc(F)cc2)[C@H]2c3cc(C(=O)N(C)C)n(Cc4ccsc4Br)c3C[C@H]2CN1C(=O)c1ccccc1",
    "composite z-score": 1.65
  },
  {
    "compound": "CCCCCN1CC=CC23O[C@@H]4/C=C\\CCCOC(=O)C4[C@H]2C(=O)N(CCO)[C@@H]3C1=O (some centres undefined)",
    "composite z-score": 0.657
  },
  {
    "compound": "CCCCCN1CC=CC23O[C@@H]4/C=C\\CCCOC(=O)C4[C@H]2C(=O)N(CCCCCO)[C@@H]3C1=O (some centres undefined)",
    "composite z-score": -0.682
  },
  {
    "compound": "COc1ccc(CCNC(=O)[C@@H]2c3ccccc3C(=O)N(C(C)C)[C@H]2c2ccc(CO)cc2)cc1",
    "composite z-score": -0.362
  },
  {
    "compound": "COC(=O)[C@@]1(Cc2ccc(F)cc2)[C@H]2c3cc(C(=O)N(C)C)n(Cc4cccc5ccccc45)c3C[C@H]2CN1C(=O)c1ccccc1",
    "composite z-score": 0.881
  },
  {
    "compound": "CCCNC(=O)[C@@]1(Sc2ccc(C)cc2)CC(=O)N(Cc2cc(C(F)(F)F)cc(C(F)(F)F)c2)[C@@H]1c1ccc(CO)cc1",
    "composite z-score": -0.0318
  },
  {
    "compound": "O=C1O[C@H](c2ccccc2)[C@H](c2ccccc2)N2[C@H]1[C@@H](C(=O)N1CCCCCCC1)[C@]1(C(=O)Nc3ccc(C#CCCO)cc31)[C@H]2c1ccc(O)cc1",
    "composite z-score": 1.53
  },
  {
    "compound": "O=C(O)C1=CC[C@H]2C(=O)N(c3ccccc3)C(=O)[C@@H]12",
    "composite z-score": 0.453
  },
  {
    "compound": "C=CC[C@H](O)c1ccc(O)c(F)c1",
    "composite z-score": -0.0732
  },
  {
    "compound": "COc1ccc(C(=O)Nc2ccc(CN3C(=O)[C@@]4(O[C@@H](CC(=O)N(CCO)Cc5ccccc5)[C@H]([Si](C)(C)c5ccc(OC)cc5)[C@H]4C)c4ccccc43)cc2)cc1",
    "composite z-score": -0.294
  },
  {
    "compound": "C[C@]1(C(=O)NCC(F)(F)F)c2ccccc2C(=O)N(Cc2cc(C(F)(F)F)cc(C(F)(F)F)c2)[C@H]1c1ccc(CO)cc1",
    "composite z-score": 0.108
  },
  {
    "compound": "COc1ccc(C(O)C2C=CC3C(=O)N(c4ccccc4)C(=O)C3N2Nc2ccccc2F)c2ccccc12 (centres undefined)",
    "composite z-score": 1.34
  },
  {
    "compound": "CCOC(=O)C1=CCC(c2ccncc2)N(S(=O)(=O)c2ccc(C)cc2)C1 (centres undefined)",
    "composite z-score": 1.05
  },
  {
    "compound": "O=C1O[C@@H](c2ccccc2)[C@@H](c2ccccc2)N2[C@@H](c3ccc(OCCO)cc3)[C@]3(C(=O)Nc4ccc(C#CC5=CCCCC5)cc43)[C@@H](C(=O)Nc3nc4ccccc4s3)[C@H]12",
    "composite z-score": -0.142
  },
  {
    "compound": "CO[C@H]1O[C@H](CO)[C@@H](OC(=O)Nc2cccc(F)c2)[C@H](OC(=O)c2cc3ccccc3[nH]2)[C@H]1OC(=O)c1cc2ccccc2[nH]1",
    "composite z-score": 0.337
  },
  {
    "compound": "COc1ccc([Si](C)(C)[C@H]2[C@H](CC(=O)N(CCO)Cc3ccccc3)O[C@@]3(C(=O)N(Cc4cccc(N5CCCCC5=O)c4)c4ccccc43)[C@@H]2C)cc1",
    "composite z-score": 0.825
  },
  {
    "compound": "C=CCN1C(=O)[C@]2(O[C@H](CCO)[C@@H]([Si](C)(C)c3ccc(OC)cc3)[C@@H]2C)c2cc(N3C(=O)c4ccccc4Oc4ccccc43)ccc21",
    "composite z-score": 0.199
  },
  {
    "compound": "COCCOC(=O)N1C(=O)[C@@]2(c3cc(C#CCC(C(=O)OC)C(=O)OC)ccc31)[C@H](C(=O)N1CCc3cc(OC)c(OC)cc3C1)[C@H]1C(=O)O[C@H](c3ccccc3)[C@H](c3ccccc3)N1[C@@H]2c1ccccc1OCCO",
    "composite z-score": 0.75
  },
  {
    "compound": "CN(C)CCCC[C@@H]1NC(=O)[C@H]2C[C@@H](C(=O)NCCCCCCNC(=O)CS)[C@@H](c3cccc(OCCO)c3)N2C1=O",
    "composite z-score": 0.586
  },
  {
    "compound": "COC(=O)[C@@]1(Cc2ccc(F)cc2)[C@H]2c3cc(C(=O)N4CCCC4)n(Cc4ccc(C(F)(F)F)nc4)c3C[C@H]2CN1C(=O)c1ccccc1",
    "composite z-score": 0.4
  },
  {
    "compound": "C=C(C)C1CN([C@H](CO)c2ccccc2)C(=O)/C1=C\\c1ccccc1 (some centres undefined)",
    "composite z-score": 0.027
  },
  {
    "compound": "[N-]=[N+]=Nc1ccccc1C[C@@]1(C(=O)NCC(O)CO)N=C(c2ccc(OCCCO)cc2)O[C@@H]1c1ccccc1N=[N+]=[N-] (some centres undefined)",
    "composite z-score": 1.26
  },
  {
    "compound": "CC(C)C[C@@H]1NC(=O)[C@@H]2C[C@H](C(=O)NCCCCCCNC(=O)CS)[C@H](c3ccc(O)cc3)N2C1=O",
    "composite z-score": 0.655
  },
  {
    "compound": "COCCCNC(=O)[C@@]1(Cc2ccccc2I)c2ccccc2C(=O)N(C2CCCCC2)[C@H]1c1ccc(CO)cc1",
    "composite z-score": 0.386
  },
  {
    "compound": "COc1cc2c(cc1O)C(C)N(Cc1sc3ccccc3c1Cl)CC2 (centres undefined)",
    "composite z-score": -0.181
  },
  {
    "compound": "C=C(/C=C\\CNS(=O)(=O)c1ccc(C)cc1)[C@H](O)[C@H]1CCCN1S(=O)(=O)c1ccccc1[N+](=O)[O-]",
    "composite z-score": -0.538
  }
]
